The reported numbers originate from ChEMBL document CHEMBL5550170.

target: Amine oxidase [flavin-containing] B (Homo sapiens, UniProt P27338); settings: 0.5 h, read-out: INH
Sequence (P27338 whole entry): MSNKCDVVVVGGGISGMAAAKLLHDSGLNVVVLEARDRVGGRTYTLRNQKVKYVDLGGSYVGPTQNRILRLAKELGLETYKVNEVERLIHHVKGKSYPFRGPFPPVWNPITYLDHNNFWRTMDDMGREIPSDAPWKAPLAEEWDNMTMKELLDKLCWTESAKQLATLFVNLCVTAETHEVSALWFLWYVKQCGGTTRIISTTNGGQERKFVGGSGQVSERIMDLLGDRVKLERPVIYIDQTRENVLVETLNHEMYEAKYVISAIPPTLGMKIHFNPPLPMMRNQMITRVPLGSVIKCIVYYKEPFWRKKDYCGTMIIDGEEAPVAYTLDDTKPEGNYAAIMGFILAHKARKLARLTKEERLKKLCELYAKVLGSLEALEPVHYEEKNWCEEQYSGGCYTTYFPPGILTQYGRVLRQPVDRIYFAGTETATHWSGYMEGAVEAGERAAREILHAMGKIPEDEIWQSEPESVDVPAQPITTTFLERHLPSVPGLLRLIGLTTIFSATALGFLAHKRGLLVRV
Description: Inhibition of human MAO-B at 1 uM preincubated with compound for 10 mins followed by substrate addition and measured after 30 mins relative to control
inhibition at 1 µM vs 10%: at or above is T, below is F.

Answered cases to consult:
Cc1ccc(NC(=O)c2ccc3[nH]c(CC(N)=O)nc3c2)cc1 | T
NC(=O)Cc1nc2cc(OCc3ccc(C(F)(F)F)cc3)ccc2[nH]1 | T
Cc1nc2cc(OCc3cccc(F)c3)ccc2[nH]1 | F

Query block: API: above_or_equal(metric=inhibition at 1 µM, cutoff=10%) for item NC(=O)Cc1nc2cc(OCc3cccc(Cl)c3)ccc2[nH]1
Result block: T

Query block: Try COc1cccc(COc2ccc3[nH]c(CC(N)=O)nc3c2)c1 next.
Result block: F
